All figures here come from patent US20220380459A1.

biological target: T1, human CD33 extracellular domain (human, UniProt P20138 18-259); assay: SPR, Fab captured, 37C;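 further: surface plasmon resonance with Fabs captured on anti-Fab surface, soluble monomeric CD33 as analyte at several concentrations, double-referenced 1:1 model fit, KD as koff/kon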
T1 construct: soluble monomeric ECD; also called human CD33 ECD; hCD33
measuredMetric: kon (M⁻¹ s⁻¹)
Give your result in M⁻¹ s⁻¹ as a bare value.

Item ADI-11825 Fab (Fab, V domains shown, Fab fragment; also called Ab25) VH: EVQLVESGGGLVQPGGSLRLSCAASGFTFGGYWMSWVRQAPGKGLEWVANINQDGSEEYYVDSVKGRFTISRDNAKNSLYLQMNSLRAEDTAVYYCAREANYYGNVGDDYWGQGTLVTVSS VL: DIQMTQSPSSLSASVGDRVTITCRASQSIYNYLNWYQQKPGKAPKLLIYAASNLHSGVPSRFSGSGSGTDFTLTISSLQPEDFATYYCQQAFHVPITFGGGTKVEIK has what recorded kon?
2.13e+06

Item ADI-10159 Fab (Fab, V domains shown, Fab fragment; also called Ab1; G59) VH: EVQLVESGGGLVQPGGSLRLSCAASGFTFSSYGMSWVRQAPGKGLEWVANIKQDGSEKYYVDSVKGRFTISRDNAKNSLYLQMNSLRAEDTAVYYCAREGGPYYDSSGYFVYYGMDVWGQGTTVTVSS VL: DIQMTQSPSTLSASVGDRVTITCRASQSISSWLAWYQQKPGKAPKLLIYDASSLESGVPSRFSGSGSGTEFTLTISSLQPDDFATYYCQQYESFPTFGGGTKVEIK has what recorded kon?
429000

Item Fab fragment from Lintuzumab (Fab, V domains shown, Fab fragment) VH: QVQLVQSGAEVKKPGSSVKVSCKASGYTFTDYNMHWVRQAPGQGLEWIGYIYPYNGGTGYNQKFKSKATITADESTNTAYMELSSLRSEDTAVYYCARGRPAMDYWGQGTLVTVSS VL: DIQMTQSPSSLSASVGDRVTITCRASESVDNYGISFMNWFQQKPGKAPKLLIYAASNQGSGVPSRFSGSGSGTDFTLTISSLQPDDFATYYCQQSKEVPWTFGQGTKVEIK has what recorded kon?
735000

Item ADI-11839 Fab (Fab, V domains shown, Fab fragment; also called Ab28) VH: QVQLVQSGAEVKKPGASVKVSCKASGYTFSNYYMHWVRQAPGQGLEWMGWINPFSGGTRYAQKFQGRVTMTRDTSTSTVYMELSSLRSEDTAVYYCARDVGSSAYYYMDVWGKGTTVTVSS VL: DIQMTQSPSSVSASVGDRVTITCEASKGISSWLAWYQQKPGKAPKLLIYAASDLQSGVPSRFSGSGSGTDFTLTISSLQPEDFATYYCQQAFLFPPTFGGGTKVEIK has what recorded kon?
874000

Item ADI-11815 Fab (Fab, V domains shown, Fab fragment; also called Ab7) VH: QVQLVQSGAEVKKPGASVKVSCKASGYTFGTYYMHWVRQAPGQGLEWMGIINPSRGSTVYAQKFQGRVTMTRDTSTSTVYMELSSLRSEDTAVYYCARGAGYDDEDMDVWGKGTTVTVSS VL: DIQMTQSPSSVSASVGDRVTITCRASQGIDSWLAWYQQKPGKAPKLLIYAASSLQSGVPSRFSGSGSGTDFTLTISSLQPEDFATYYCQQAHSYPLTFGGGTKVEIK has what recorded kon?
339000
